Recorded residual activity by entry
target: KDR (human); experiment: radiometric filter-binding kinase assay, Kinase HotSpot; details: compound 0.5 µM; ATP 10 µM

{"mol": "CN([C@@H](Cc1ccc(OS(=O)(=O)c2cccc3cnccc23)cc1)C(=O)N1CCN(c2ccccc2)CC1)S(=O)(=O)c1cccc2cnccc12", "residual activity [%]": 100}
{"mol": "O=C(CCCc1ccc(-c2ccccc2F)cc1)Nc1ccc(O)cc1", "residual activity [%]": 101}
{"mol": "Nc1nnc2[nH]c3ccccc3nc1-2", "residual activity [%]": 95.8}
{"mol": "Cc1nc2cc3nc(-c4cccs4)cnc3cc2n1C", "residual activity [%]": 77.4}

###

molecular target: SYK (human) (UniProt P43405); test: radiometric filter-binding kinase assay, Kinase HotSpot; conditions: compound 0.5 µM; ATP 10 µM
Recorded residual activity by entry
observable: residual activity (%)

{"molecule": "COc1ccc(OC)c2c(=S)c3ccccc3[nH]c12", "observable": "residual activity", "recorded_measurement": 100}
{"molecule": "CCN(CC)CCCCN1c2ccccc2Oc2ccc(Cl)cc21", "observable": "residual activity", "recorded_measurement": 97.6}
{"molecule": "O=C1Nc2ccccc2/C1=C1/Nc2ccccc2/C1=N\\OCCC(O)CO (stereo not drawn)", "observable": "residual activity", "recorded_measurement": 38.6}

###

Recorded residual activity by entry
biological target: SIK2 (human) (UniProt Q9H0K1); assay: radiometric filter-binding kinase assay, Kinase HotSpot; conditions: compound 0.5 µM; ATP 10 µM
Sequence (Q9H0K1 whole entry, looked up): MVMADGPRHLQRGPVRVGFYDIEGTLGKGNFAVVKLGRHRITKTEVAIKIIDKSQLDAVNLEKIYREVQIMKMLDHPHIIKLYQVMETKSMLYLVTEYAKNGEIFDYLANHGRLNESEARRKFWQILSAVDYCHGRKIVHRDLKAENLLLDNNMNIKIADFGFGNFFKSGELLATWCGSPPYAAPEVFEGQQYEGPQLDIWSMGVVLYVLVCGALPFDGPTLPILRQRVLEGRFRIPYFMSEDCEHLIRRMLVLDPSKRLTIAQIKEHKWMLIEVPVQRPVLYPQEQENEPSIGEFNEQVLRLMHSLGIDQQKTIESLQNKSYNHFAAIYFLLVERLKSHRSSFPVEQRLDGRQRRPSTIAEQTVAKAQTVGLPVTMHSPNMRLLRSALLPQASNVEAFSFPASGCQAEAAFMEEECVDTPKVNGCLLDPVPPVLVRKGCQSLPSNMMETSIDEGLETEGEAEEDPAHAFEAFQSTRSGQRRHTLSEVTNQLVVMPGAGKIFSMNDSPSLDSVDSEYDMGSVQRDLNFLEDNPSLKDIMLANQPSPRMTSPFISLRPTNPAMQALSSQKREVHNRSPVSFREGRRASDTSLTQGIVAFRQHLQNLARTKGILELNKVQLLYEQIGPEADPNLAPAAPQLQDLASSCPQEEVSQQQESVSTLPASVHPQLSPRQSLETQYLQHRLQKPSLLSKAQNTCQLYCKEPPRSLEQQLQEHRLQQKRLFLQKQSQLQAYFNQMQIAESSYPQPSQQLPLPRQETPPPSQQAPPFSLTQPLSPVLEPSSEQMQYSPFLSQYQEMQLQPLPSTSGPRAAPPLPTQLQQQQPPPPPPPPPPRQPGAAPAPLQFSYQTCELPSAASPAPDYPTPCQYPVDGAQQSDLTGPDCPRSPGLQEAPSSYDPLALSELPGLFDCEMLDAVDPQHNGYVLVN
observable: residual activity (%)

{"molecule": "O=C1Nc2ccccc2/C1=C1/Nc2ccccc2/C1=N\\OCCC(O)CO (stereo not drawn)", "observable": "residual activity", "measurement_units": "%", "recorded_measurement": 75.1}
{"molecule": "Nc1nnc2[nH]c3ccccc3nc1-2", "observable": "residual activity", "measurement_units": "%", "recorded_measurement": 102}
{"molecule": "O=C1Nc2ccccc2/C1=C1\\Nc2ccccc2\\C1=N/O", "observable": "residual activity", "measurement_units": "%", "recorded_measurement": 89.8}

###

target: NEK1 (human) (UniProt Q96PY6); assay: radiometric filter-binding kinase assay, Kinase HotSpot; conditions: compound 0.5 µM; ATP 10 µM
Sequence (Q96PY6 whole entry, looked up): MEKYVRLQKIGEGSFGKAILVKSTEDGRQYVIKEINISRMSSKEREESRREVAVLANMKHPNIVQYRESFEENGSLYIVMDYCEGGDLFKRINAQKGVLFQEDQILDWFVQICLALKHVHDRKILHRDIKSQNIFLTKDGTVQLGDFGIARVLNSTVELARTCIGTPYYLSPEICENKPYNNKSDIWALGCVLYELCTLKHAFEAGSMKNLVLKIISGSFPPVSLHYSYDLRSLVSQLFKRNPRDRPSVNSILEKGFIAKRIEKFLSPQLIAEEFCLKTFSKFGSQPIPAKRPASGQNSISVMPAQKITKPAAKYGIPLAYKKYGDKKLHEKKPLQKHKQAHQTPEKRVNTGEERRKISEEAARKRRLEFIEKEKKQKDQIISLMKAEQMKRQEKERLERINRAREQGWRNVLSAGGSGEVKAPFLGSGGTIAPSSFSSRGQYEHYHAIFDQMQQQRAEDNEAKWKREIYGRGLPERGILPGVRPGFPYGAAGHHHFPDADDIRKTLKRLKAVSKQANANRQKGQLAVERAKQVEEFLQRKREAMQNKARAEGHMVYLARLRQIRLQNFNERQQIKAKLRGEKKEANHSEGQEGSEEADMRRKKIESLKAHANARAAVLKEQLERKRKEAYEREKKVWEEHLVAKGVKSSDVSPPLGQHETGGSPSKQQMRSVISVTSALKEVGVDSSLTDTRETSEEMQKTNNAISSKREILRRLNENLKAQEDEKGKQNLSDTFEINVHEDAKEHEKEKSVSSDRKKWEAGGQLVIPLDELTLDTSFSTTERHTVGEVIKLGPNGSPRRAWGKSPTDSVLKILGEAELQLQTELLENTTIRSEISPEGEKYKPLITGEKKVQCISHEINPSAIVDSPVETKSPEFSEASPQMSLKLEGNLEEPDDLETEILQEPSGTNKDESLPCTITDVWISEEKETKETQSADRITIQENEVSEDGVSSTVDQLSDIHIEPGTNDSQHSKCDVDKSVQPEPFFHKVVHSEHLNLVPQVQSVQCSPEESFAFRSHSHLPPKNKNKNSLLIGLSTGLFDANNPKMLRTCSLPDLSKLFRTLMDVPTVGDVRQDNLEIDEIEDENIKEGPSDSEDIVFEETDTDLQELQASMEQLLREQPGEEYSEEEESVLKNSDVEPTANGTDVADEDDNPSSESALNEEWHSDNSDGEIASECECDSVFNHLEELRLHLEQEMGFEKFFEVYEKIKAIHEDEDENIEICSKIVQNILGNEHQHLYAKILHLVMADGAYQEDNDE
Hi! Could you tag entries with residual activity below 90% as 1.0, and those at or above as 0.0? Much appreciated.

{"compound": "CC(C)[C@H](CO)Nc1nc(Nc2cc(N)cc(Cl)c2)c2ncn(C(C)C)c2n1", "classification": 1.0}
{"compound": "O=C1Nc2ccccc2/C1=C1/Nc2ccccc2/C1=N\\OCCC(O)CO (centres undefined)", "classification": 0.0}
{"compound": "O=C(Nc1cccc(Nc2cc(Nc3cccc(C(F)(F)F)c3)ncn2)c1)C1CC1", "classification": 0.0}
{"compound": "Nc1nccc(-c2c(-c3ccc(F)cc3)ncn2C2CCNCC2)n1", "classification": 0.0}
{"compound": "O=C1Cc2c([nH]c3ccc(Br)cc23)-c2ccccc2N1", "classification": 0.0}
{"compound": "CN([C@@H](Cc1ccc(OS(=O)(=O)c2cccc3cnccc23)cc1)C(=O)N1CCN(c2ccccc2)CC1)S(=O)(=O)c1cccc2cnccc12", "classification": 0.0}
{"compound": "O=C(O)/C=C/c1cc(Br)c(Br)c(Br)c1Br", "classification": 1.0}
{"compound": "O=C1NC(=O)/C(=C\\c2ccc3nccnc3c2)S1", "classification": 1.0}
{"compound": "O=C1Nc2ccccc2/C1=C1\\Nc2ccccc2\\C1=N/O", "classification": 0.0}
{"compound": "Cn1nc2c3c(cccc31)C(=O)c1ccccc1-2", "classification": 1.0}
{"compound": "O=C1NC(=O)C(c2c[nH]c3ccccc23)=C1c1c[nH]c2ccccc12", "classification": 0.0}
{"compound": "CCn1cnc2c(Nc3cccc(Cl)c3)nc(N[C@@H]3CCCC[C@@H]3N)nc21", "classification": 0.0}
{"compound": "CC(=O)O/N=C1\\C(=C2\\C(=O)Nc3cc(Br)ccc32)Nc2ccccc21", "classification": 0.0}
{"compound": "COc1cc2ncc(-c3ccccc3)nc2cc1OC", "classification": 0.0}
{"compound": "COc1ccc(CNC(=O)Nc2ncc([N+](=O)[O-])s2)cc1", "classification": 0.0}
{"compound": "Cn1sc(=O)n(Cc2ccccc2)c1=O", "classification": 0.0}

###

Recorded residual activity by entry
target: PRKCE (human); assay: radiometric filter-binding kinase assay, Kinase HotSpot; settings: compound 0.5 µM; ATP 10 µM

{"mol": "Cn1nc2c3c(cccc31)C(=O)c1ccccc1-2", "measurement_units": "%", "residual activity": 95.7}
{"mol": "O=C1NC(=O)C(c2c[nH]c3ccccc23)=C1c1c[nH]c2ccccc12", "measurement_units": "%", "residual activity": 24}
{"mol": "CN([C@@H](Cc1ccc(OS(=O)(=O)c2cccc3cnccc23)cc1)C(=O)N1CCN(c2ccccc2)CC1)S(=O)(=O)c1cccc2cnccc12", "measurement_units": "%", "residual activity": 99.5}
{"mol": "O=C1NC(=O)/C(=C\\c2ccc3nccnc3c2)S1", "measurement_units": "%", "residual activity": 101}
{"mol": "Oc1ccc(Nc2nc(-c3ccc(Cl)cc3)cs2)cc1", "measurement_units": "%", "residual activity": 99.6}
{"mol": "CN(C)C[C@H]1CCn2c(c(C3=C(c4cn(C)c5ccccc45)C(=O)NC3=O)c3ccccc32)C1", "measurement_units": "%", "residual activity": 2.73}
{"mol": "CC(C)[C@H](CO)Nc1nc(Nc2cc(N)cc(Cl)c2)c2ncn(C(C)C)c2n1", "measurement_units": "%", "residual activity": 105}
{"mol": "COc1ccc(CNC(=O)Nc2ncc([N+](=O)[O-])s2)cc1", "measurement_units": "%", "residual activity": 92.4}
{"mol": "O=C1NC(=O)C(c2cn(CCCO)c3ncccc23)=C1c1cnccn1", "measurement_units": "%", "residual activity": 102}
{"mol": "CCn1cnc2c(Nc3cccc(Cl)c3)nc(N[C@@H]3CCCC[C@@H]3N)nc21", "measurement_units": "%", "residual activity": 90.6}
{"mol": "O=C1Nc2ccccc2/C1=C1\\Nc2ccccc2\\C1=N/O", "measurement_units": "%", "residual activity": 96.5}

###

target: UniProt Q13882; experiment: radiometric filter-binding kinase assay, Kinase HotSpot; conditions: compound 0.5 µM; ATP 10 µM
Sequence (Q13882 whole entry, looked up): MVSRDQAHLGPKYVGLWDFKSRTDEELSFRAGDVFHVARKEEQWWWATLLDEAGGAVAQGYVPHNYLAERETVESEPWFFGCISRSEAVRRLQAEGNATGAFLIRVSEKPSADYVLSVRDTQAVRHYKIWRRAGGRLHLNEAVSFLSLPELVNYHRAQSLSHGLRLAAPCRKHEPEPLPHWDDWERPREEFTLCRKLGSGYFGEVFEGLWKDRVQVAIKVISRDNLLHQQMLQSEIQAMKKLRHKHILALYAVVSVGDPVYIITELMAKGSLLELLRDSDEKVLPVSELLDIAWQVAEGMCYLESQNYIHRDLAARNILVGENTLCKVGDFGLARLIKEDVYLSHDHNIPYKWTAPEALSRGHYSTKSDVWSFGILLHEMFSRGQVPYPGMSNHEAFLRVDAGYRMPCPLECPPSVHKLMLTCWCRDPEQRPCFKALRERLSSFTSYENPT

{"compound": "O=C1NC(=O)/C(=C\\c2ccc3nccnc3c2)S1", "residual activity [%]": 95.1}
{"compound": "COc1ccc(OC)c2c(=S)c3ccccc3[nH]c12", "residual activity [%]": 84}
{"compound": "O=C1NC(=O)C(c2cn(CCCO)c3ncccc23)=C1c1cnccn1", "residual activity [%]": 101}
{"compound": "CN(C)C[C@H]1CCn2c(c(C3=C(c4cn(C)c5ccccc45)C(=O)NC3=O)c3ccccc32)C1", "residual activity [%]": 90.4}
{"compound": "O=C1Nc2ccccc2/C1=C1/Nc2ccccc2/C1=N\\OCCC(O)CO (stereo not given)", "residual activity [%]": 73.3}
{"compound": "Cn1nc2c3c(cccc31)C(=O)c1ccccc1-2", "residual activity [%]": 91.8}
{"compound": "O=C1Cc2c([nH]c3ccc(Br)cc23)-c2ccccc2N1", "residual activity [%]": 87.7}
{"compound": "Cn1cnc2cc3c(Nc4cccc(Br)c4)ncnc3cc21", "residual activity [%]": 54}
{"compound": "CC(=O)O/N=C1\\C(=C2\\C(=O)Nc3cc(Br)ccc32)Nc2ccccc21", "residual activity [%]": 91.2}
{"compound": "O=C(CCCc1ccc(-c2ccccc2F)cc1)Nc1ccc(O)cc1", "residual activity [%]": 102}

###

Recorded residual activity by entry
biological target: MYLK (human) (UniProt Q15746); assay: radiometric filter-binding kinase assay, Kinase HotSpot; conditions: compound 0.5 µM; ATP 10 µM
Sequence (Q15746 whole entry, looked up): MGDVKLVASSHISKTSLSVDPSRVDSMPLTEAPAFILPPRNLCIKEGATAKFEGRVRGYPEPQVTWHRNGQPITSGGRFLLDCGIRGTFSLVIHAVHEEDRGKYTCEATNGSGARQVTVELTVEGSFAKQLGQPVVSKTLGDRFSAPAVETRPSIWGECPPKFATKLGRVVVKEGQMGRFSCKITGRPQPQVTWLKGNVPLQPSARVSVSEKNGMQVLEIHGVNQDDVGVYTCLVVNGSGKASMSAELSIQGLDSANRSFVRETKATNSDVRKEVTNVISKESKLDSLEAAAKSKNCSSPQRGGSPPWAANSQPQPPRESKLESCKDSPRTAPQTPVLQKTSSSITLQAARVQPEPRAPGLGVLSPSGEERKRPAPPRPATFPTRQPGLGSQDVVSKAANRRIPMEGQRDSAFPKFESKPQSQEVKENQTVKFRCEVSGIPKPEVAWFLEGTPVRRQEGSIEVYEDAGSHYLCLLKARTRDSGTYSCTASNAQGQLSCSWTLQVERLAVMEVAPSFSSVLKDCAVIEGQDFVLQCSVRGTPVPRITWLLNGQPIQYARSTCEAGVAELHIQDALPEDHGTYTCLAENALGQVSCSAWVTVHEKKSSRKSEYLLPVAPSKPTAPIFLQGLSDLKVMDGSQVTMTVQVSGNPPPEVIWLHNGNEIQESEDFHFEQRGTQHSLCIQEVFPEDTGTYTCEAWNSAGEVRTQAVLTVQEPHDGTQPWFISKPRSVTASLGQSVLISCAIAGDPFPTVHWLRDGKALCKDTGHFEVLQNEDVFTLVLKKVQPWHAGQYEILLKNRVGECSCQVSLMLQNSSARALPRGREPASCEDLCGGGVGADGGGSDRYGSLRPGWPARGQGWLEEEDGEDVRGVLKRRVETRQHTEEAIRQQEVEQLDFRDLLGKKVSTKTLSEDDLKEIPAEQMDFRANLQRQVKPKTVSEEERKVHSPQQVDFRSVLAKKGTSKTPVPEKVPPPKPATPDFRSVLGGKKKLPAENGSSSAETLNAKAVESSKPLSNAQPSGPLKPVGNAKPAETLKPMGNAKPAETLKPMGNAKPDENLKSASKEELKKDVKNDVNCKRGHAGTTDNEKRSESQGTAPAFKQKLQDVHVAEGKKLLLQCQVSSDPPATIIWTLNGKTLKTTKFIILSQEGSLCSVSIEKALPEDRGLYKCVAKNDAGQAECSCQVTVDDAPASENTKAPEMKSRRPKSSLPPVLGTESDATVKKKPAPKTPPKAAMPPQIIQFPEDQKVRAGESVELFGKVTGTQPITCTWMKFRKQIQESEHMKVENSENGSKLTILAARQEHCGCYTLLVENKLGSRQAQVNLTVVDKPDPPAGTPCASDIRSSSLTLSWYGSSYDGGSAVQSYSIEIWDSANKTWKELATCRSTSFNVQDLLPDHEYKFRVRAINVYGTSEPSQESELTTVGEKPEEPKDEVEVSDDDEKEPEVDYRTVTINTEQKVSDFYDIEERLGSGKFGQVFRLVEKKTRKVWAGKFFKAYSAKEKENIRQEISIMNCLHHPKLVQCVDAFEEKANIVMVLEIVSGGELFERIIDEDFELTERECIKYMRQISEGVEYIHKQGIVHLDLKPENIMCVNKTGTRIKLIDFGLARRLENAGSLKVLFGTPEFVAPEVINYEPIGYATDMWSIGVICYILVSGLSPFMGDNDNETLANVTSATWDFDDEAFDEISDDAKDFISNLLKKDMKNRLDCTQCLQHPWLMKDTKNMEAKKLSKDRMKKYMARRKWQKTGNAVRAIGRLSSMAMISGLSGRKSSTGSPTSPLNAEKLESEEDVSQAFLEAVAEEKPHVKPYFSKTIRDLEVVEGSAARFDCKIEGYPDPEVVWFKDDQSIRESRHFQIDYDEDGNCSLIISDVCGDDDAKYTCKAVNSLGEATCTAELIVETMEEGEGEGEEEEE

{"mol": "Cn1sc(=O)n(Cc2ccccc2)c1=O", "residual activity / %": 94.5}
{"mol": "Cc1nc2cc3nc(-c4cccs4)cnc3cc2n1C", "residual activity / %": 97}
{"mol": "Nc1nccc(-c2c(-c3ccc(F)cc3)ncn2C2CCNCC2)n1", "residual activity / %": 99.8}

###

target: NUAK2 (human); assay: radiometric filter-binding kinase assay, Kinase HotSpot; settings: compound 0.5 µM; ATP 10 µM

{"compound": "Cn1cnc2cc3c(Nc4cccc(Br)c4)ncnc3cc21", "residual activity": "102%"}
{"compound": "O=C1NC(=O)C(c2c[nH]c3ccccc23)=C1c1c[nH]c2ccccc12", "residual activity": "86%"}
{"compound": "O=C(O)/C=C/c1cc(Br)c(Br)c(Br)c1Br", "residual activity": "98.9%"}
{"compound": "Cc1nc2cc3nc(-c4cccs4)cnc3cc2n1C", "residual activity": "96.7%"}
{"compound": "Nc1nnc2[nH]c3ccccc3nc1-2", "residual activity": "96.3%"}
{"compound": "Cn1nc2c3c(cccc31)C(=O)c1ccccc1-2", "residual activity": "85.7%"}
{"compound": "O=C1NC(=O)/C(=C\\c2ccc3nccnc3c2)S1", "residual activity": "76%"}
{"compound": "O=C1Nc2ccccc2/C1=C1/Nc2ccccc2/C1=N\\OCCC(O)CO (stereo not drawn)", "residual activity": "55.1%"}
